Tested on: Human immunodeficiency virus 1
methodNotes: Antiviral activity against HIV1 3B in MT4 cells after 4 days by MTT method
Format: functional, organism-based
conditionSet: Human immunodeficiency virus 1, 3B, MT4, 96 h
recordedMetric: log10(IC50) (log10 of the value in nM)
// do not treat as linear: log10 of IC50, unit nM

Using the record for CCc1c(C(=O)c2cccc3ccccc23)n(C/C=C/C(=O)OC)c(=O)[nH]c1=O , report its log10(IC50).
2.85

Using the record for C=CCOCn1c(C(=O)c2cccc3ccccc23)c(C)c(=O)[nH]c1=O , report its log10(IC50).
3.32

Using the record for CCOCn1c(C(=O)c2cccc3ccccc23)c(C)c(=O)[nH]c1=O , report its log10(IC50).
3.60

Using the record for CC(C)=CCn1c(C(=O)c2cccc3ccccc23)c(C(C)C)c(=O)[nH]c1=O , report its log10(IC50).
3.38

Using the record for C=CCOCn1c(C(=O)c2cccc3ccccc23)c(CC)c(=O)[nH]c1=O , report its log10(IC50).
2.28

Using the record for CCc1c(C(=O)c2cccc3ccccc23)n(COCC=C(C)C)c(=O)[nH]c1=O , report its log10(IC50).
3.84

Using the record for CCc1c(C(=O)c2cccc3ccccc23)n(COCC2CC2)c(=O)[nH]c1=O , report its log10(IC50).
2.97

Using the record for CCc1c(C(=O)c2cccc3ccccc23)n(CC#Cc2ccccc2)c(=O)[nH]c1=O , report its log10(IC50).
2.32

Using the record for Cc1c(C(=O)c2cccc3ccccc23)n(CC#Cc2ccccc2)c(=O)[nH]c1=O , report its log10(IC50).
3.45

Using the record for Cc1c(C(=O)c2cccc3ccccc23)n(COCC2CC2)c(=O)[nH]c1=O , report its log10(IC50).
3.89

Using the record for Cc1c(C(=O)c2cccc3ccccc23)n(COCc2ccccc2)c(=O)[nH]c1=O , report its log10(IC50).
3.20

Using the record for CCc1c(C(=O)c2cccc3ccccc23)n(COCc2ccccc2)c(=O)[nH]c1=O , report its log10(IC50).
2.18

Using the record for CC(=O)OC/C=C(\C)Cn1c(C(=O)c2cccc3ccccc23)c(C)c(=O)[nH]c1=O , report its log10(IC50).
4.62

Using the record for CCc1c(C(=O)c2cccc3ccccc23)n(CC2CC=CC2)c(=O)[nH]c1=O , report its log10(IC50).
2.34

Using the record for CCOCn1c(C(=O)c2cccc3ccccc23)c(CC)c(=O)[nH]c1=O , report its log10(IC50).
2.45

Using the record for CC(C)c1c(C(=O)c2cccc3ccccc23)n(COCc2ccccc2)c(=O)[nH]c1=O , report its log10(IC50).
2.04

Using the record for CCc1c(C(=O)c2cccc3ccccc23)n(COCc2ccc([N+](=O)[O-])cc2)c(=O)[nH]c1=O , report its log10(IC50).
2.73
